biological target: EPHB2 (UniProt P29323); assay: phosphorylation enrichment, bacterial display (enrichment ratio); higher = better substrate or ligand; peptides without Tyr show the background
Sequence (P29323 whole entry, looked up): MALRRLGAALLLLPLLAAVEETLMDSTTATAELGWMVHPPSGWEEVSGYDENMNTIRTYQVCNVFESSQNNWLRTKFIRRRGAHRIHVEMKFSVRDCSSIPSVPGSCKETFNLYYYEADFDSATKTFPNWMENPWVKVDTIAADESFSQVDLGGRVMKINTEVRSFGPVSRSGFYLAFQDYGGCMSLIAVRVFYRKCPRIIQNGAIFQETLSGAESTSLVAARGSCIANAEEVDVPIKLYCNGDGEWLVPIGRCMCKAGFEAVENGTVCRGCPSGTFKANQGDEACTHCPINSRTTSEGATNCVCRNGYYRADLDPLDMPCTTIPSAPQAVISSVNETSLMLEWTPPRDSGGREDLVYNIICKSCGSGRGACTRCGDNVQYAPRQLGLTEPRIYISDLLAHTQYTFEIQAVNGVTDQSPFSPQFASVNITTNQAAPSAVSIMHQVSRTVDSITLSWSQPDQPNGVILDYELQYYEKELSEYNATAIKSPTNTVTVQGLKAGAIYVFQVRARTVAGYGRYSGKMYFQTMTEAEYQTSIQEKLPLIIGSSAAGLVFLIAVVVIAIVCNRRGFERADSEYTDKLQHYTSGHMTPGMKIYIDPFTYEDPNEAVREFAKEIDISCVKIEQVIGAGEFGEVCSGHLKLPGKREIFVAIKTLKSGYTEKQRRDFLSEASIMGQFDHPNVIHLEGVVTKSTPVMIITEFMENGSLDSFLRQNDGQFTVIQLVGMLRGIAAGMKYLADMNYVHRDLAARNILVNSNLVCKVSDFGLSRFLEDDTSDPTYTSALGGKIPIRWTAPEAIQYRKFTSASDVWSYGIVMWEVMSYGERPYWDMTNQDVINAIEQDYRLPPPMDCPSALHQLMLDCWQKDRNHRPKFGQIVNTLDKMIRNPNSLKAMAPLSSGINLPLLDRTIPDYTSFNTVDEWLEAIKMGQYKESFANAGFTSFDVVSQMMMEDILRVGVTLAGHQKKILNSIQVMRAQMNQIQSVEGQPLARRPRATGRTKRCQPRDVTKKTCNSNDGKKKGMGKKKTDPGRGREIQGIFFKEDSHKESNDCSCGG
experimental.readout: phosphorylation enrichment
Quick one: just the number, no unit, thanks!

| residue.sequence | reading |
| --- | --- |
| EQLGEYKFQNA [ALB_Y425] | 0.415 |
| DDYDLYGGEKF [PTPN11_Y66_Y62D] | 2.85 |

Prompt: Please indicate recorded phosphorylation enrichment of LGGAMYYLEAE [PKHD1_Y452] measured with EPHB2 (UniProt P29323).
Completion: 1.25

Prompt: Jot down phosphorylation enrichment (EPHB2 (UniProt P29323)) of NNDLCYWVLEL [IARS1_Y434_P437L] .
Completion: 1.05

Prompt: Please report the measured phosphorylation enrichment for HNQDGYSFPSR [LDLR_Y845_YF] tested on EPHB2 (UniProt P29323).
Completion: 0.939

Prompt: Fill in: phosphorylation enrichment on EPHB2 (UniProt P29323), entry LEQGEYALRSH [HADHB_Y244_D242G]
Completion: 0.556

Prompt: // output phosphorylation enrichment; input LIFVSYDDWDF [GRIN2A_Y281_S278F_YF] ; system EPHB2 (UniProt P29323)
Completion: 2.89

Prompt: Provide measured phosphorylation enrichment on EPHB2 (UniProt P29323) for LERYIYNREEL [HLA-DPB1_Y59_F64L] please.
Completion: 0.407

Prompt: # assay system EPHB2 (UniProt P29323): give phosphorylation enrichment of DGQVNYEGFVQ [CALM1_Y139_E141G]
Completion: 1.01

Prompt: Tell me phosphorylation enrichment of DFLEKYFKFGC [NNMT_Y24_S29C_YF] when tested on EPHB2 (UniProt P29323).
Completion: 0.545

Prompt: Under EPHB2 (UniProt P29323): report phosphorylation enrichment of HHTNEYEYDEL [TGM1_Y134_D132N] .
Completion: 0.585

Prompt: Quote EPHB2 (UniProt P29323) phosphorylation enrichment for entry HFVDEYDRTIE [KRAS_Y32_P34R] .
Completion: 0.805

Prompt: # return phosphorylation enrichment of CGADSYEMEED [EGFR_Y316] (system: EPHB2 (UniProt P29323))
Completion: 0.72

Prompt: For EPHB2 (UniProt P29323), give the measured phosphorylation enrichment of the entry QTSTDYDIRFY [CSNK2A1_Y131_L128S]
Completion: 1.36

Prompt: // fetch phosphorylation enrichment; item: SLDLSYFPTSS [EMD_Y181_YF] ; system: EPHB2 (UniProt P29323)
Completion: 0.513

Prompt: Quote phosphorylation enrichment with test system EPHB2 (UniProt P29323) for LLLLFYVVRFC [MPZ_Y177_YF]
Completion: 0.443

====

test system: AncSZ; assay: phosphorylation enrichment, bacterial display (enrichment ratio); higher = better substrate or ligand; peptides without Tyr show the background
// label = 1 if phosphorylation enrichment is not less than 1, otherwise 0

Solved cases (8 shown):
| residue.sequence | test.system | assigned.class |
| --- | --- | --- |
| HHTNEYEYDEL [TGM1_Y134_D132N] | AncSZ | 1 |
| YQQLFYLLQIN [IQGAP2_Y890_T894I] | AncSZ | 1 |
| DKATEYSQYMR [MAX_Y70_I71S] | AncSZ | 0 |
| CSGNCYLDIRP [FBN1_Y1535_R1530C] | AncSZ | 0 |
| SKEPYYVHCIK [MYO1D_Y586_R588H] | AncSZ | 0 |
| QYPDIYAREEV [CRX_Y67_V66I] | AncSZ | 1 |
| PRQRRYVYYYS [PTEN_Y174_S170R] | AncSZ | 1 |
| NVVQEYERVII [NPHS2_Y131_K126N] | AncSZ | 1 |

Prompt: hey, is phosphorylation enrichment for this one >= 1? VGTKRYMAPKV [ACVRL1_Y375_E379K]
Completion: 0

Prompt: Evaluate TTKGAYSLSVR [YES1_Y194_I198V] : phosphorylation enrichment at minimum 1?
Completion: 0

Prompt: Tell me whether phosphorylation enrichment is at least 1 here: ELTAKYLNYYQ [P3H4_Y181]
Completion: 0

Prompt: phosphorylation enrichment >= 1 for MTFQNYGQALF [FAM20C_Y279] ?
Completion: 0

Prompt: Textbook exercise: given the entry SDGGCYEQLFV [MC4R_Y41] , state whether its phosphorylation enrichment is greater than or equal to 1.
Completion: 1

Prompt: Record GGSDRYGSLRP [MYLK_Y846] ; criterion: phosphorylation enrichment no lower than 1. Met?
Completion: 0

Prompt: # check: phosphorylation enrichment of QKPLGYFRVNL [GALE_Y104_D103G_YF] is greater than or equal to 1
Completion: 1

====

system: AncSZ; test: phosphorylation enrichment, bacterial display (enrichment ratio); higher = better substrate or ligand; peptides without Tyr show the background
# if value of phosphorylation enrichment reaches 0.6, tag met; if it stays below, tag not met

| residue.sequence | assigned.class |
| --- | --- |
| TLKDVCDDGKY [RPS6KA3_Y483_Y483C] | met |
| LYEDCYLLGTS [ASS1_Y87_R86C] | met |
| DAVKHYMQFQK [CNGA2_Y395_R399Q] | not met |
| REEKNYKHKET [BCLAF1_Y459_L461H] | met |
| NAGAFYVLSTL [FLVCR2_Y325_A326V] | met |

Shift focus to the following entry.
Prompt: Quick check: does VHNLNYFKKTT [FGFR3_Y647_D646N_YF] have phosphorylation enrichment greater than or equal to 0.6?
Completion: not met

====

target: c-Src SH2; test: SH2 binding enrichment of the phosphorylated peptide, bacterial display (enrichment ratio); higher = better substrate or ligand; peptides without Tyr show the background;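 note: peptide library displayed on the E. coli surface as eCPX fusions, selected cells deep-sequenced, score is each peptide's frequency after selection divided by its frequency in the input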
Rule: SH2 binding enrichment under 0.6 gives False, otherwise True.

Previously resolved entries follow.
| residue.sequence | assigned.class |
| --- | --- |
| SPLTDYSPQLQ [OTC_Y345_L341P] | False |
| QEALEYFMKQM [PIK3CA_Y1038] | True |
| ESFRLYPPVPQ [CYP4B1_Y377] | False |
| VRTGIYHGGEP [PIK3CA_Y361] | False |
| EHEALYLEADL [CENPF_Y1920] | False |

Attention now turns to another entry.
Prompt: Is the recorded value of SH2 binding enrichment equal to or greater than 0.6 for this sequence? RFLKDYGEFEV [GINS1_Y156_C152Y_YF]
Completion: False

====

target: Fyn (UniProt P06241); assay: phosphorylation enrichment, bacterial display (enrichment ratio); higher = better substrate or ligand; peptides without Tyr show the background
Sequence (P06241 whole entry, looked up): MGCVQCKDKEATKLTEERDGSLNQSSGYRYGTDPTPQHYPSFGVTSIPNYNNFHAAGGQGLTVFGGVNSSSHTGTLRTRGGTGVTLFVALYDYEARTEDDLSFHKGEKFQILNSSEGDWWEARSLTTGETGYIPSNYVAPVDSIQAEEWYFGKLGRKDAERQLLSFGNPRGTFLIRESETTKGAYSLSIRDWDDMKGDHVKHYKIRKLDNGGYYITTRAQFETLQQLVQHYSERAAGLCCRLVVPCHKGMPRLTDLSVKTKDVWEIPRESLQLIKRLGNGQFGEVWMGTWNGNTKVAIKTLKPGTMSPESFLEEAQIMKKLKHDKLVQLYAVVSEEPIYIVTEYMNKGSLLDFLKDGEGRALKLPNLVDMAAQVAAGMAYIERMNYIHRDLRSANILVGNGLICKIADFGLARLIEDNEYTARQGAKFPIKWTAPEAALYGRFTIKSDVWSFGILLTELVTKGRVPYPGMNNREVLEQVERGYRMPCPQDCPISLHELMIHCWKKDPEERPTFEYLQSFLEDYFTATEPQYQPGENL
experimental.readout: phosphorylation enrichment
Lab note: jot the number down without any unit.

Take a look at these entries with their results.
| residue.sequence | phosphorylation enrichment |
| --- | --- |
| SFPSTYRFERG [INPPL1_Y661_P659S_YF] | 0.39 |
| SLAARYFNWVS [FLT4_Y1230_YF] | 0.494 |
| IFRASYFRRGD [LTK_Y676_YF] | 0.512 |
| DNEFAYLKAII [HNF4A_Y288_YF] | 0.386 |
| NKVKFYIPDMN [NCR1_Y84] | 0.396 |
| YSKTQYNQVPR [CXADR_Y318_S323R] | 0.319 |
| ISNATYKQIGL [FLT1_Y199_E201Q] | 0.434 |
| ACVARYIFKRL [LPCAT3_Y348_W344C] | 0.635 |

Prompt: Specify measured phosphorylation enrichment for RAQIRYAQEHD [NSD1_Y1987_R1984Q] .
Completion: 0.633

Prompt: Return phosphorylation enrichment for the following sequence: GNHVSYFQSDG [CACNA1C_Y1757_YF]
Completion: 0.458

Prompt: Give the value of phosphorylation enrichment reported for the following: QEALEYFMKQM [PIK3CA_Y1038]
Completion: 0.696

Prompt: Report phosphorylation enrichment for PLGPLYASSNT [INSR_Y992_P997T]
Completion: 0.908

Prompt: Identify measured phosphorylation enrichment associated with LAARFYNWVCF [FLT4_Y1231_S1235C_YF]
Completion: 0.849

Prompt: Please look at this sequence and report its phosphorylation enrichment: LKTNWYNNGKD [DNMT3B_Y404_C403W]
Completion: 0.544

Prompt: // fetch phosphorylation enrichment given entry QSPQLYKQLCI [DARS1_Y253_M256L]
Completion: 0.719

Prompt: Supply phosphorylation enrichment value. Item: ATDLAYFLVRE [ASL_Y375_K380E_YF]
Completion: 0.809

Prompt: Assign phosphorylation enrichment to the following record: YDGKEYDPVEA [MAPRE2_Y167]
Completion: 0.556

====

Each entry below carries its recorded phosphorylation enrichment.
target: Fyn (UniProt P06241); experiment: phosphorylation enrichment, bacterial display (enrichment ratio); higher = better substrate or ligand; peptides without Tyr show the background
Please give only the number in your answer, with no unit.

| residue.sequence | reading |
| --- | --- |
| SSMSDYNPLEK [MYOC_Y479_I477S] | 0.47 |

Prompt: Check the records and state phosphorylation enrichment for DEFLEYRRIVG [FAM221A_Y20_YF]
Completion: 0.505

Prompt: Fill in phosphorylation enrichment for record QPSPSYDSSGG [TCF12_Y70_R74G]
Completion: 0.667

Prompt: Indicate its recorded phosphorylation enrichment; the sequence in question is MTFQNYGQALF [FAM20C_Y279]
Completion: 0.458

Prompt: Please list phosphorylation enrichment recorded for the sequence RKGGSYSQAAS [HLA-A_Y344_T345S]
Completion: 0.537
